Below, each entry is listed alongside its reported IC90 (μg/ml) SPN 6305.
System: Streptococcus pneumoniae (ATCC6305)
protocol_summary: Microtitre plate assay, IC90 determination, SPN 6305
Format: cell-based
measurement_context: Streptococcus pneumoniae ATCC6305; 90% inhibitory concentration for bacterial growth; resazurin
Please give a number only; it is taken to be in µg/mL.

// query Could you tell me which IC90 (μg/ml) SPN 6305 is on file for COc1nc2ccc(F)cc2cc1C(C(=CCN(C)C)c1ccccc1)c1ccccc1 (racemic) [Compound 24] ?
// result 1.51

// query Also COc1nc2ccc(Br)cc2cc1C(=C(CCn1ccnc1)c1ccccc1)c1ccccc1 (single isomer, unassigned) [Compound 5] , if possible.
// result 36.14

// query For CCN(CC)CC=C(c1cccc2ccccc12)C(c1ccccc1)c1cc2cc(Br)ccc2nc1OC (racemic) [Compound 28] then?
// result 2.01

// query Could you do the same for COc1nc2ccc(F)cc2cc1C(=C(CCN(C)C)c1ccccc1)c1ccccc1 (single isomer, unassigned) [Compound 39] , please?
// result 8.51

// query Here is the next compound: COc1nc2ccc(-c3cc4ccccc4s3)cc2cc1C(C(=CCN(C)C)c1cccc(F)c1)c1ccccc1 (racemic) [Compound 33]
// result 7.89

// query For COc1nc2ccc(-c3ccccc3)cc2cc1C(C(=CCN(C)C)c1cccc2ccccc12)c1ccccc1 (mixture of isomers) [Compound 32] then?
// result 1.9

// query Follow-up entry: COc1nc2ccc(Br)cc2cc1C(=C(C)CCN(C)C)c1ccccc1 (mixture of isomers) [Compound 35]
// result 1.35

* * *

Below, each entry is listed alongside its reported IC90 (μg/ml) EFA 29212.
System: Enterococcus faecalis (ATCC29212)
protocol_summary: Microtitre plate assay, IC90 determination, EFA 29212
Type: cell-based
measurement_context: Enterococcus faecalis ATCC29212; 90% inhibitory concentration for bacterial growth; resazurin
Please give a number only; it is taken to be in µg/mL.

> print(dat)
                                   compound                   target.or.system            test.readout  test.result
1  COc1nc2ccc(C)cc2cc1C(C(=CCN(C)C)c1ccccc1)c1ccccc1 (racemic) [Compound 30]  Enterococcus faecalis (ATCC29212)  IC90 (μg/ml) EFA 29212        11.91

// query Entry COc1nc2ccc(-c3ccccc3)cc2cc1C(C(=CCN(C)C)c1cccc2ccccc12)c1ccccc1 (mixture of isomers) [Compound 32] : reported IC90 (μg/ml) EFA 29212 = ?
// result 9.51

// query What do you have for COc1nc2ccc(Br)cc2cc1C(=C(C)CCN(C)C)c1ccccc1 (mixture of isomers) [Compound 35] ?
// result 15.09

// query And COc1nc2ccc(Br)cc2cc1C(=C(CCN(C)C)c1cccc(F)c1)c1ccccc1 [Compound 38] ?
// result 8.01

// query Another compound to check: CSc1nc2ccc(-c3ccccc3)cc2cc1C(=C(CCN(C)C)c1ccccc1)c1ccccc1 (single isomer, unassigned) [Compound 40]
// result 15.83

// query Field entry: COc1nc2ccc(Br)cc2cc1C(=C(CCN(C)C)c1ccccc1)c1ccccc1 [Compound 36]
// result 12.24

// query Subsequent entry: COc1nc2ccc(Br)cc2cc1C(C(=CCN(C)C)c1cccc(F)c1)c1ccccc1 (racemic) [Compound 25]
// result 40.15

* * *

Tested on: Staphylococcus aureus (ATCC29213)
protocol_summary: Microtitre plate assay, IC90 determination, STA 29213
Type: cell-based
measurement_context: Staphylococcus aureus ATCC29213; 90% inhibitory concentration for bacterial growth; resazurin
test_readout: IC90 (μg/ml) STA 29213 (µg/mL)
Field format: number, assumed µg/mL, no unit text.

Past entries and their recorded results:
> print(dat)
                                   compound                   target.or.system  test.result
1  COc1nc2ccc(Br)cc2cc1C(=C(CCN(C)C)c1cccc(F)c1)c1ccccc1  Staphylococcus aureus (ATCC29213)        10.08
2  COc1nc2ccc(-c3cccnc3)cc2cc1C(=C(CCN(C)C)c1cccc2ccccc12)c1ccccc1  Staphylococcus aureus (ATCC29213)         8.49
3  CSc1nc2ccc(-c3ccccc3)cc2cc1C(=C(CCN(C)C)c1ccccc1)c1ccccc1 (single isomer, unassigned)  Staphylococcus aureus (ATCC29213)        19.93
4  COc1nc2ccc(-c3cc4ccccc4s3)cc2cc1C(C(=CCN(C)C)c1cccc(F)c1)c1ccccc1 (racemic)  Staphylococcus aureus (ATCC29213)         8.86

Next compound, IC90 (μg/ml) STA 29213 to be filled in.
// query Please look up its IC90 (μg/ml) STA 29213: COc1nc2ccc(F)cc2cc1C(C(=CCN(C)C)c1ccccc1)c1ccccc1 (racemic)
// result 33.88

* * *

System: Streptococcus pneumoniae (ATCC6305)
protocol_summary: Microtitre plate assay, IC90 determination, SPN 6305
Type: cell-based
measurement_context: Streptococcus pneumoniae ATCC6305; 90% inhibitory concentration for bacterial growth; resazurin
Label Yes when IC90 (μg/ml) SPN 6305 is strictly below 8 µg/mL; at or above that, label No.

Completed entries (count: 4):
> print(dat)
                                   compound                     target.or.system  category
1  CSc1nc2ccc(-c3ccccc3)cc2cc1C(=C(CCN(C)C)c1ccccc1)c1ccccc1 (single isomer, unassigned) [Compound 40]  Streptococcus pneumoniae (ATCC6305)       Yes
2  COc1nc2ccc(-c3cc4ccccc4s3)cc2cc1C(C(=CCN(C)C)c1cccc2ccccc12)c1ccccc1 (mixture of isomers) [Compound 34]  Streptococcus pneumoniae (ATCC6305)        No
3  COc1nc2ccc(Br)cc2cc1C(C(=CCN1CCN(C)CC1)c1ccccc1)c1ccccc1 (racemic) [Compound 48]  Streptococcus pneumoniae (ATCC6305)       Yes
4  COc1nc2ccc(Br)cc2cc1C(=C(CCn1ccnc1)c1ccccc1)c1ccccc1 (single isomer, unassigned) [Compound 6]  Streptococcus pneumoniae (ATCC6305)        No

Attention now shifts to the item below.
// query A record lists COc1nc2ccc(C)cc2cc1C(C(=CCN(C)C)c1ccccc1)c1ccccc1 (racemic) [Compound 30] . Is its IC90 (μg/ml) SPN 6305 below 8 µg/mL?
// result Yes

* * *

Tested on: M. Smegmatis ATCC607
protocol_summary: In-vitro anti-bacterial activity against strain M. smegmatis ATCC607
Format: cell-based
measurement_context: Mycolicibacterium smegmatis, ATCC607, 48 h, read-out: M. smegmatis IC90 (μg/ml), 90% inhibitory concentration for bacterial growth, Alamar Blue fluorescence
Method: Flat-bottom, sterile 96-well plastic microtiter plates were filled with 180 μl of sterile deionized water, supplemented with 0.25% BSA. […] At the end of incubation, two days after inoculation, the bacterial growth was quantitated fluorometrically. […] The fluorescence was read in a computer-controlled fluorometer (Cytofluor, Biosearch) at an excitation wavelength of 530 nm and an emission wavelength of 590 nm (gain 30).
test_readout: IC90
Mention the unit after the number when you answer.

Study these solved cases before continuing.
> print(dat)
                                   molecule  test.result
1  CSc1nc2ccc(Br)cc2cc1/C(=C(/CCN(C)C)c1ccccc1)c1ccccc1   1.59 µg/mL
2  COc1ccc(/C(=C(\CCCCN2CCCCC2)c2ccccc2)c2cnc3ccccc3c2)cc1   7.55 µg/mL
3  N#Cc1ccc(/C(=C(\CCCCN2CCCCC2)c2ccc(Cl)cc2)c2cnc3ccccc3c2)cc1   8.02 µg/mL
4  COc1nc2ccc(-c3ccco3)cc2cc1C(/C(=C/CN(C)C)c1cccc2ccccc12)c1ccccc1 (centres unmarked)   14.8 µg/mL

Now turn to the next molecule.
// query Would you mind telling me what IC90 value was observed for CSc1nc2ccc(Br)cc2cc1C(/C(=C/CN(C)C)c1ccccc1)c1ccccc1 (centres unmarked) ?
// result 7.98 µg/mL
